pIC50: −log10 of the molar value.
For reference, the following pIC50 results for BTK (Homo sapiens) were taken from various sources.

Before answering, review these 8 worked examples.
[[record]]
compound = "Cc1ccc(Cl)c(NCC(=O)N[C@@H]2CCCN(c3ncnc4[nH]ccc34)C2)c1"
tested_on = "BTK (Homo sapiens)"
data_value = "6.00 to 7.00"

[[record]]
compound = "O=C(O)/C=C/c1cccc(-c2cnc3[nH]cc(C(=O)c4cc(O)ccc4F)c3c2)c1"
tested_on = "BTK (Homo sapiens)"
data_value = "≥ 5.00"

[[record]]
compound = "Cc1cc(-c2ncnc3cc(C4CCS(=O)(=O)CC4)[nH]c23)ccc1CNC(=O)c1cnc(C(C)(C)C)s1"
tested_on = "BTK (Homo sapiens)"
data_value = "> 8.00"

[[record]]
compound = "CCC[C@@H](Nc1cc(F)cc(Cl)c1)C(=O)N1CCC2CCN(c3ncnc4[nH]ccc34)C2C1 (stereo partly drawn)"
tested_on = "BTK (Homo sapiens)"
data_value = "> 7.00"

[[record]]
compound = "C=CC(=O)N[C@H]1CC[C@@H](Nc2nc(Nc3cn[nH]c3)nc3ccsc23)CC1"
tested_on = "BTK (Homo sapiens)"
data_value = "≥ 7.30"

[[record]]
compound = "CN1CCN(CC#CC(=O)N2CC3(CC(n4nc(-c5ccc(Oc6ccccc6)cc5)c5cncnc54)C3)C2)CC1"
tested_on = "BTK (Homo sapiens)"
data_value = "> 7.00"

[[record]]
compound = "CCS(=O)(=O)Nc1ccc(F)c(C(=O)c2c[nH]c3ncc(-c4cnc(OC)nc4)cc23)c1F"
tested_on = "BTK (Homo sapiens)"
data_value = "≥ 5.00"

[[record]]
compound = "CC1C(Nc2ncnc3[nH]ncc23)CCCN1C(=O)CNc1ccccc1S(=O)(=O)C1CCCC1 (stereo not drawn)"
tested_on = "BTK (Homo sapiens)"
data_value = "> 7.00"


[Q] Item C[C@@H]1C[C@@H]2CCN(C(=O)CNc3cc(Cl)cc(Cl)c3)C[C@@H]2N1c1ncnc2[nH]ccc12 with BTK (Homo sapiens) - pIC50?
[A] > 7.00

[Q] What measured pIC50 is associated with C=CC(=O)N1CC2CC1C(n1nc(-c3ccc(C(=O)Nc4cccc(C(F)(F)F)n4)cc3)c3c(N)ncnc31)C2 (stereo not drawn) on BTK (Homo sapiens)?
[A] 8.20

[Q] I'm curious: which pIC50 was measured for N#CN1CCC[C@@H](n2cc(-c3ccc(Oc4ccccc4)cc3)c3c(N)n[nH]c(=O)c32)C1 tested on BTK (Homo sapiens)?
[A] 6.00 to 8.00

[Q] Form entry - test system: BTK (Homo sapiens); read-out: pIC50; compound: C=CC(=O)N1CC2CC1C(n1nc(-c3ccc(S(=O)(=O)c4ccccc4)cc3)c3c(N)ncnc31)C2 (stereo not drawn)
Sequence (Q06187 whole entry): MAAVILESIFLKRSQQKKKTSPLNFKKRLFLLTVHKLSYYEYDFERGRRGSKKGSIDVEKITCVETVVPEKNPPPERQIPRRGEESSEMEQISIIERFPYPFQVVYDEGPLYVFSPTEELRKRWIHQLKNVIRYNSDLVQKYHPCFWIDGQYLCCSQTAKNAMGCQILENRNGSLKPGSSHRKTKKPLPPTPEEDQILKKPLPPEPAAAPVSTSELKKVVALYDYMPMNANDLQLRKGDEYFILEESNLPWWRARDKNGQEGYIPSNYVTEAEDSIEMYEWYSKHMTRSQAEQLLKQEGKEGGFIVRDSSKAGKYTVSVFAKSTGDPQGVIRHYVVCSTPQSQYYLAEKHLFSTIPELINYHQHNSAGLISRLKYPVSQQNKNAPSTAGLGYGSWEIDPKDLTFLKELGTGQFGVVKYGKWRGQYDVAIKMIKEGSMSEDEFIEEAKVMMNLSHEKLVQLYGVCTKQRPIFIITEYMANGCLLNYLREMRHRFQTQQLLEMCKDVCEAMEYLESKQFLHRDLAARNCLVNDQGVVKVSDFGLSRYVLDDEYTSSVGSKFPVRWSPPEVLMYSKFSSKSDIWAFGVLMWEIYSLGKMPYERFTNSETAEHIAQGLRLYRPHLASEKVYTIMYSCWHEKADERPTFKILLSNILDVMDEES
[A] 8.40

[Q] Give BTK (Homo sapiens) pIC50 for CN1CCN(c2cn3nccc3c(-c3ccc(CNC(=O)c4nc(C(C)(C)C)no4)c(F)c3)n2)CC1
[A] 8.00 to 9.00

[Q] Please tell me: pIC50 of CN(C)C/C=C/C(=O)N1CCCC(n2cc(-c3ccc(Oc4ccc(Cl)cc4)cc3)c3c(N)n[nH]c(=O)c32)C1 (stereo not drawn) , system BTK (Homo sapiens)?
[A] 6.00 to 8.00

[Q] API: value(readout= pIC50, system= BTK (Homo sapiens), query= C=CC(=O)N1CC[C@H](n2nc(-c3ccc(Oc4ccccc4)cc3)c3cncnc32)C1 )
[A] > 7.00

[Q] Recall the recorded pIC50 for CCC(=O)N1CCC[C@@H](n2cc(-c3ccc(Oc4c(F)cccc4F)cc3)c3c(N)n[nH]c(=O)c32)C1 with BTK (Homo sapiens) and state it.
[A] 6.00 to 8.00

[Q] Give pIC50 (BTK (Homo sapiens)) of the following compound: CN(C)C/C=C/C(=O)N1CC[C@@H](n2c(=O)n(-c3ccc(Oc4ccccc4)cc3)c3c(N)ncnc32)C1
[A] 7.85

[Q] Kindly state the measured pIC50 obtained for C=CC(=O)N1CC[C@]2(C1)C[C@H](n1c(NC(=O)c3ccc(-c4c[nH]nc4C)s3)nc3ccccc31)C2 with BTK (Homo sapiens).
[A] 9.15

[Q] pIC50 of C=CC(=O)Nc1cccc(-c2ccc(C(N)=O)c(-c3ccc(Oc4ccccc4)cc3)n2)c1 on BTK (Homo sapiens)?
[A] > 6.30

[Q] Enter reported pIC50 observed with BTK (Homo sapiens) for COc1cccc(NCC(=O)NC2CCCN(c3nccc4[nH]ccc34)C2)c1OC (stereo not drawn)
[A] < 5.00

[Q] Could you share what pIC50 was measured for C=CC(=O)N1CC(Nc2cncc(-c3cnc(Oc4cccc(Cl)c4F)nc3)c2)C1 , tested on BTK (Homo sapiens)?
[A] 8.16

---

Compiled pIC50 measurements on BTK (Homo sapiens) taken from the literature.
pIC50: −log10 of the molar value.

The cases that follow already have their pIC50 on record.
[[record]]
molecule = "O=C(CNc1ccccn1)NC1CCCN(c2ncnc3[nH]ccc23)C1 (stereo not shown)"
property = "pIC50"
data_value = "5.00 to 6.00"

[[record]]
molecule = "Cn1cc(-c2cn3nccc3c(-c3ccc(CNC(=O)c4nnn(C(C)(C)C)n4)c(C(F)F)c3)n2)cn1"
property = "pIC50"
data_value = "> 9.00"

[[record]]
molecule = "Cc1ccc(N(C)C(=O)/C=C/CN(C)C2CC2)cc1-n1c(=O)n(-c2ccc(Oc3ccccc3)cc2)c2c(N)ncnc21"
property = "pIC50"
data_value = "6.00 to 7.00"

[[record]]
molecule = "C=CC(=O)N(CCn1nc(-c2cc(O)cc(F)c2)c2c(N)ncnc21)Cc1ccc(Cl)cc1"
property = "pIC50"
data_value = 9.40

[[record]]
molecule = "Cc1cc(-c2ccnc(Nc3cnn(C)c3)n2)ccc1CNC(=O)N1CC(OC(C)(C)C)C1"
property = "pIC50"
data_value = "> 8.00"

[[record]]
molecule = "Cc1cc(-c2nc(C(=O)Nc3cn4cc(CCC(C)(C)O)nc4cc3-c3ccc(F)cc3)co2)ccn1"
property = "pIC50"
data_value = 7.51

[[record]]
molecule = "O=C(c1cccc(O)c1F)c1c[nH]c2ncc(Br)cc12"
property = "pIC50"
data_value = "≥ 5.00"

[[record]]
molecule = "C=CC(=O)N1CCC(c2ncc(C(N)=O)c(-c3ccc(Oc4ccccc4)cc3)n2)CC1"
property = "pIC50"
data_value = "> 6.30"

[[record]]
molecule = "Cc1cc(-c2nc(C(=O)Nc3cn4cc(CCC(C)(C)O)nc4cc3N3CCC(CO)CC3)co2)ccn1"
property = "pIC50"
data_value = 8.85

[[record]]
molecule = "Cc1cc(-c2ccnc(Nc3cnn(C)c3)n2)ccc1CNC(=O)c1cc2c(s1)CCOC2"
property = "pIC50"
data_value = "> 8.00"


[Q] State the recorded pIC50 for this entry: CC(C)C=C(C#N)C(=O)N1C[C@H]2CC(n3nc(-c4ccc(C(=O)Nc5ccccn5)cc4)c4c(N)ncnc43)[C@H]1C2 (stereo partly shown)
[A] 8.00

[Q] Please report the recorded pIC50 for CC#CC(=O)N1CCC(n2nc(-c3ccc(Oc4cc(F)cc(OCc5cnc(C)nc5)c4)cc3)c3c(N)ncnc32)CC1 .
[A] 7.62

[Q] Please report the recorded pIC50 for C=CC(=O)Nc1cccc(-c2cccc(Nc3cc(C4CCCC4)[nH]n3)n2)c1 .
[A] 6.86

---

Compiled record: IC50 values for BTK (Homo sapiens) across several sources.
property: IC50 (µM)

[[record]]
molecule = "COc1cc(C)c(-c2ccc3cn[nH]c3c2)c2nnc(C(N)=O)c(N)c12"
data_value = 0.01

[[record]]
molecule = "Nc1ncnc2c1c(-c1ccc(Oc3ccccc3)cc1)nn2C1CCCN(C(=O)/C=C/CN2CCOCC2)C1 (stereo not drawn)"
data_value = 0.0056

[[record]]
molecule = "C=CC(=O)N1CC2CC1C(n1nc(-c3ccc(C(=O)Nc4cccc(CC)c4)cc3)c3c(N)ncnc31)C2 (stereo not drawn)"
data_value = 0.072


1 = CC(C)(C)c1ccc2c(=O)n(-c3cccc(-n4cc(C(N)=O)c(Nc5ccccn5)n4)c3CO)ncc2c1
2 = C=CC(=O)N1CC2(CC2)C[C@H]1c1nc(-c2ccc(C(=O)Nc3cc(C(F)(F)F)ccn3)cc2)c2c(N)nccn12
3 = C=C(F)C(=O)N1CCC[C@@H](n2nc(-c3ccc(Oc4cc(F)cc(OCc5cnc(C)nc5)c4)cc3)c3c(N)ncnc32)C1
[Q] Put these in order: smallest IC50 first, largest last. Your reply should list the labels following the order given in the request.
[A] 1, 3, 2
(1: 0.00095 µM, 3: 0.006 µM, 2: 0.052 µM)

---

pIC50: −log10 of the molar value.
// read-out pIC50, gathered for BTK (Homo sapiens, UniProt Q06187) from published studies
property: pIC50

P = C=CC(=O)N1CC[C@]2(C1)C[C@H](n1c(NC(=O)c3ccc(-c4cncnc4C)s3)nc3ccccc31)C2
Q = CC#CC(=O)N1CC2CCCC2C1c1nc(-c2ccc(C(=O)Nc3ccccn3)cc2)c2c(N)nccn12 (stereo not shown)
R = Cc1c(-c2cc(Nc3ccc(C(=O)N4CCOCC4)cn3)c(=O)n(C)c2)cccc1N1CNc2cc(N(C)C)ccc2C1=O
[Q] Task for the reader: rank each entry by its pIC50, from the minimum upward. Answer with the labels in sequence, matching the requested order.
[A] R, P, Q
